These entries and their values trace back to patent US20250333397A1.

Parameter: pIC50. Scope: all listed entries.
- Test system: HTT mRNA
- assay notes: RT-qPCR splicing assay, HTT canonical (CJ) and alternative (AJ) junction mRNA
- Assay type: cell-based, human
- experimental parameters: Homo sapiens, 24 h, Table 3A; A673 or K562 cells, 24 h treatment; read-out: HTT CJ (IC50, decrease in CJ mRNA)
pIC50: −log10 of the molar value.

Oc1cc(-c2cn[nH]c2)c(F)cc1-c1ccc(N2CC[C@H](NC3CCC3)C2)nn1 ... > 7.00
COc1cc(-c2ccc(-c3cc(C#N)c(OC4CC(C)(C)NC(C)(C)C4)nn3)c(O)c2)ncn1 ... 6.00 to 7.00
COc1cc(-c2cc(O)c(-c3ccc(N4CC[C@H](NC5CC5)C4)nn3)cc2F)cnn1 ... > 7.00

// pIC50 lookup, key: `Oc1cc(-c2ccc(-c3ccc(N4CC[C@@H](NC5CCC5)C4)nn3)c(O)c2)cnn1`
6.00 to 7.00

----------
Listing of recorded IC50 by entry.
- System: Target C mRNA
- assay notes: RT-qPCR splicing assay panel, Target C canonical junction (CJ) mRNA
- Format: cell-based, human
- experimental parameters: Homo sapiens, canonical junction (CJ) mRNA, RT-qPCR panel, Table 4A; read-out: Target C, decrease in CJ mRNA levels, IC50

Worked cases, IC50 given:
COc1cc(-c2ccc(-c3ccc(N4CC[C@@H](NCC5CC5)C4)nn3)c(O)c2)cnn1 [Compound 288] ... 0.1 to 1 µM
COc1cc(-c2cc(O)c(-c3ccc(N4CC[C@@H](NC5(C)CCC5)C4)nn3)cc2F)cnn1 [Compound 286] ... 0.1 to 1 µM

What value of IC50 has been reported for the following compound? Cc1ncc(-c2ccc(-c3ccc(N4CC[C@](C)(NCC5CC5)C4)nn3)c(O)c2)s1 (single isomer, unassigned) [Compound 438]
0.1 to 1 µM

Item CCc1cc(-c2ccc(-c3ccc(N4CC[C@H](NC5CCC5)C4)nn3)c(O)c2)cnn1 [Compound 278] has what recorded IC50?
> 10 µM

Can you look up the measured IC50 of Cc1cnc(-c2cc(O)c(-c3ccc(N4CCC(NC5CCC5)C4)nn3)cc2F)s1 (stereo not shown) [Compound 367] for me?
> 10 µM

Any idea what its IC50 is? The compound is Cn1ncc(-c2ccc(-c3ccc(N4CC[C@@H](NC(C)(C)C)C4)nn3)c(O)c2)cc1=O [Compound 297]
< 0.1 µM

What does the record list as IC50 for Cc1ncc(-c2cc(O)c(-c3ccc(N4CCC(CNC(C)(C)C)C4)nn3)cc2F)s1 (stereo not shown) [Compound 333] ?
> 10 µM

Report IC50 for COc1cc(-c2ccc(-c3ccc(N4CCC(NCC5CC5)C4)nn3)c(O)c2)nc(C)n1 (stereo not shown) [Compound 371] please.
> 10 µM

Which IC50 reading was recorded for the compound COc1cc(-c2ccc(-c3ccc(N4CCC(NC5CC(C)(C)C5)C4)nn3)c(O)c2)cnn1 (stereo not shown) [Compound 352] ?
0.1 to 1 µM

Which IC50 value belongs to COc1cc(-c2ccc(-c3ccc(OC4CC(C)(C)NC(C)(C)C4)nn3)c(O)c2)cnn1 [Compound 271] ?
< 0.1 µM

Entry COc1cc(-c2ccc(-c3ccc(N4CCC(NC5CCC5)C4)nn3)c(O)c2)c(F)cn1 (stereo not shown) [Compound 307] : reported IC50 = ?
> 10 µM

// IC50 lookup, key: CC1(C)CC(Oc2nnc(-c3ccc(-c4cn[nH]c4)cc3O)cc2C#N)CC(C)(C)N1 [Compound 423]
> 10 µM
